targetOfAssay: Sclerostin (Homo sapiens, UniProt Q9BQB4)
Sequence (Q9BQB4 whole entry): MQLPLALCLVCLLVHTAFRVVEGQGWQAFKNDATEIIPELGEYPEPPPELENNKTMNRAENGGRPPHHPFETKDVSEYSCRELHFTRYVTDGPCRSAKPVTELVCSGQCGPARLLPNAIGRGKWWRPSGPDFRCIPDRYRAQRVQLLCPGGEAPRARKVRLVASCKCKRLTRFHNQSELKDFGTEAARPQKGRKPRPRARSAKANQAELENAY
methodNotes: Binding affinity to SOST loop2 (unknown origin) by SPR analysis
measuredProperty: Kd (nM)
Number only, in nM; omit the unit.

Kd for O=C1c2c(O)cc(O)cc2O[C@@H](c2cc(O)c(O)c(O)c2)[C@H]1O ?
3900

Kd for O=c1ccc2ccccc2o1 ?
231

Kd for Oc1cc(O)c2c(c1)O[C@H](c1ccc(O)c(O)c1)[C@@H](O)C2 ?
1840

----------
targetOfAssay: Sclerostin (Homo sapiens, UniProt Q9BQB4)
methodNotes: Binding affinity to SOST (unknown origin) by SPR analysis
I'd be grateful if you could share measured pKd for these entries.
Quick note: pKd values are minus log10 of concentrations in mol/L.

pKd for O=c1ccc2ccccc2o1 ?
6.56

pKd for Oc1cc(O)c2c(c1)O[C@H](c1ccc(O)c(O)c1)[C@@H](O)C2 ?
5.80

pKd for O=C1c2c(O)cc(O)cc2O[C@@H](c2ccc(O)c(O)c2)[C@H]1O [(+)-EPITAXIFOLIN] ?
5.58

pKd for Nc1nc2c(c(=O)[nH]1)NC(CNc1ccc(C(=O)N[C@@H](CCC(=O)O)C(=O)O)cc1)CN2 (stereo not given in full) ?
7.42

pKd for O=C1c2c(O)cc(O)cc2O[C@@H](c2cc(O)c(O)c(O)c2)[C@H]1O ?
5.32

----------
targetOfAssay: Sclerostin (Homo sapiens, UniProt Q9BQB4)
methodNotes: Binding affinity to SOST loop3 (unknown origin) by SPR analysis
measuredProperty: Kd (nM)
Number only, in nM; omit the unit.

Kd for Nc1nc2c(c(=O)[nH]1)NC(CNc1ccc(C(=O)N[C@@H](CCC(=O)O)C(=O)O)cc1)CN2 (stereo partly specified) ?
42.4

----------
methodNotes: Half-life in sc dosed Sprague-Dawley rat
Assay type: ADME, organism-based
experimentalConditions: in vivo
measuredProperty: half-life (h)
Number only, in h; omit the unit.

half-life for CC(=O)NCC#Cc1ccc(C(=O)NCC(=O)O)cc1 ?
1.94

----------
methodNotes: AUC in sc dosed Sprague-Dawley rat
Format: ADME, organism-based
experimentalConditions: in vivo
measuredProperty: AUC

AUC for CC(=O)NCC#Cc1ccc(C(=O)NCC(=O)O)cc1 ?
59.2 ng·h/mL
